biological target: MBP-TaCCA1-7D (Triticum aestivum, UniProt A0A3B6TKA2 1-718); assay: BLI; single-digit nM per text; exact value in Table S6 not in material; EMSA: 150 ng protein, 2 pM DIG probe, 10 ul, 1 h on ice, 6% PAGE in 0.5x TBE pH 8.0; BLI: Octet RED96e, SA sensors with biotinylated TaCCA1-7D; buffers not stated; conditions: protein: recombinant; tags: MBP (pMAL-c2X, N-terminal); biotinylated for BLI; label: 5' biotin (BLI); DIG (EMSA); blunt
Sequence (A0A3B6TKA2 entry or part of it): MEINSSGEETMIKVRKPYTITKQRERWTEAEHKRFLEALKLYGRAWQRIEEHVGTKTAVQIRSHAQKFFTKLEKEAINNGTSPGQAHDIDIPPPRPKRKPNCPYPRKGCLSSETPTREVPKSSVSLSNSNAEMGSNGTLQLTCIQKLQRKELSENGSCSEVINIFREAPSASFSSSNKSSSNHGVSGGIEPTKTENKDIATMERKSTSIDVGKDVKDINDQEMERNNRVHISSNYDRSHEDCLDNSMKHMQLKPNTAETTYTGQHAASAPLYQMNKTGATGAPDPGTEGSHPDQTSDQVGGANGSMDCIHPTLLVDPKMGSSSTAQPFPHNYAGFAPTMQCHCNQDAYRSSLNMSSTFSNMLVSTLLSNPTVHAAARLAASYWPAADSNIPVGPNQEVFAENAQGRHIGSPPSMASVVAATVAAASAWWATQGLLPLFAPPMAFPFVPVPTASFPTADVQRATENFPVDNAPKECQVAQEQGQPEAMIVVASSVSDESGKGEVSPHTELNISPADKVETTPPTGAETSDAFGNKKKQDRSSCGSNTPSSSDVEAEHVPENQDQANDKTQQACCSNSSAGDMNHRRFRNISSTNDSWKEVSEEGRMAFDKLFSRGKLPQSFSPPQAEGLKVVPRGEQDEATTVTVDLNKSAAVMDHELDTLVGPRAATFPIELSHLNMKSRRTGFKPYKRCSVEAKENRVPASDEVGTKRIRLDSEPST
Property Measured: Kd

Query string: Tell us which Kd value is on record for DAP-2 (TraesCS1D02G295200 promoter) (dsDNA) DNA 1: AAATAGAAAATTACTGATATTTCATCCTTGTGTGAT DNA 2: ATCACACAAGGATGAAATATCAGTAATTTTCTATTT
Result string: < 10 nM

Query string: Tell us which Kd value is on record for DAP-3 (TraesCS2B02G491700 promoter) (dsDNA) DNA 1: CTTCAGATTTGTTGATATTTTCATATTGCAGACAT DNA 2: ATGTCTGCAATATGAAAATATCAACAAATCTGAAG
Result string: < 10 nM

The measured values listed here are drawn from paper PMC9340162.
